Target: Aβ1–42 (Homo sapiens, UniProt P05067)
Sequence (P05067 672-713 limits assumed): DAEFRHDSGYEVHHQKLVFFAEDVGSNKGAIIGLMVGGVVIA
Residues, ends and D or L forms follow the SMILES beside them.
endpoint: pKd
Hey, just a heads up that pKd is the negative log base 10 of the concentration in molar.

Per the record, CC(=O)N[C@@H](Cc1ccc(O)cc1)C(=O)N[C@H](C(=O)N[C@@H](CCCNC(=N)N)C(=O)N[C@@H](Cc1c[nH]cn1)C(=O)N[C@@H](CC(=O)O)C(=O)N[C@@H](CC(C)C)C(=O)N[C@@H](Cc1ccc(O)cc1)C(=O)N[C@H](C(=O)N[C@@H](CCCNC(=N)N)C(=O)N[C@@H](Cc1c[nH]cn1)C(=O)N[C@@H](CC(=O)O)C(=O)N[C@@H](CC(C)C)C(N)=O)C(C)C)C(C)C [P12] (Ac-YVRHDLYVRHDL-NH2) has pKd of 6.49

* * *

Measured Kd, listed per entry for reference.
Molecular target: Aβ1–42 (Homo sapiens)
Residues, ends and D or L forms follow the SMILES beside them.
Use µM as the unit, but write only the number.

Hey, Aβ1–42 (Homo sapiens) data for CC(=O)N[C@@H](Cc1ccc(O)cc1)C(=O)N[C@H](C(=O)N[C@@H](CCCNC(=N)N)C(=O)N[C@@H](Cc1c[nH]cn1)C(=O)N[C@@H](Cc1c[nH]cn1)C(=O)N[C@@H](Cc1c[nH]cn1)C(=O)N[C@@H](Cc1ccc(O)cc1)C(=O)N[C@H](C(=O)N[C@@H](CCCNC(=N)N)C(=O)N[C@@H](Cc1c[nH]cn1)C(=O)N[C@@H](Cc1c[nH]cn1)C(=O)N[C@@H](Cc1c[nH]cn1)C(N)=O)C(C)C)C(C)C [P9] (Ac-YVRHHHYVRHHH-NH2) : Kd came out at 14

Assay Aβ1–42 (Homo sapiens), sample CC(=O)N[C@@H](Cc1ccc(O)cc1)C(=O)N[C@H](C(=O)N[C@@H](CCCNC(=N)N)C(=O)N[C@@H](Cc1c[nH]cn1)C(=O)N[C@@H](CO)C(=O)N[C@H](C(=O)N[C@@H](Cc1ccc(O)cc1)C(=O)N[C@H](C(=O)N[C@@H](CCCNC(=N)N)C(=O)N[C@@H](Cc1c[nH]cn1)C(=O)N[C@@H](CO)C(=O)N[C@H](C(N)=O)C(C)C)C(C)C)C(C)C)C(C)C [P11] (Ac-YVRHSVYVRHSV-NH2) , Kd read: 20.5

Measured Kd (Aβ1–42 (Homo sapiens)), entry CC(=O)N[C@@H](Cc1ccc(O)cc1)C(=O)N[C@H](C(=O)N[C@@H](CCCNC(=N)N)C(=O)N[C@@H](Cc1c[nH]cn1)C(=O)N[C@@H](CC(C)C)C(=O)N[C@@H](CCCCN)C(=O)N[C@@H](Cc1ccc(O)cc1)C(=O)N[C@H](C(=O)N[C@@H](CCCNC(=N)N)C(=O)N[C@@H](Cc1c[nH]cn1)C(=O)N[C@@H](CC(C)C)C(=O)N[C@@H](CCCCN)C(N)=O)C(C)C)C(C)C [P21] (Ac-YVRHLKYVRHLK-NH2) : 53.8
